src = patent US7754202B1

Assay: Solubility in aqueous culture medium
Format: physicochemical
Conditions: aqueous buffer, serial dilution in culture medium, read-out: highest concentration ensuring complete solubility in the (aqueous) medium
MEASUREMENT NAME: solubility

Record CCC(C)(C)C(=O)C(=O)N1CCCC[C@H]1C(=O)O[C@H](CCc1ccc(OC)c(OC)c1)c1cccc(OCC(=O)NCCNC(=O)COc2cccc([C@@H](CCc3ccc(OC)c(OC)c3)OC(=O)[C@@H]3CCCCN3C(=O)C(=O)C(C)(C)CC)c2)c1 , field solubility: ≤ 5 µM
